Attribution: patent US20230242658A1

experimental.target: human 4-1BB on CHO-K1 cells (human, UniProt Q07011 24-255)
Sequence (Q07011 24-255): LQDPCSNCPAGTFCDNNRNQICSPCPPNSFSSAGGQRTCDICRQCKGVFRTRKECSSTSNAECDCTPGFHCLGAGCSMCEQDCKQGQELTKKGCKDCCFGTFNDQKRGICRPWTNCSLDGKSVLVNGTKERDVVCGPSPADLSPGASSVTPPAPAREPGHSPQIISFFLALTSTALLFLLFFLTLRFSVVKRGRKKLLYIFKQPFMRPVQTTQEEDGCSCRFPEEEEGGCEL
method.description: FACS
property: EC50 (nM)

- binder: "PR001760 (antibody, V domains shown) VH: EVQLVESGGGVVQPGGSLRLSCAASGFTFSNYAMTWVRQAPEKGLEWVSSISGSGVSTYYADSVKGRFTISRDNSKNTLYLQMTRLTAEDTAVYFCAKEGSSETDDHYYNVDVWGQGTTVTVSS"
  EC50, nM: 0.198
- binder: "PR001759 (antibody, V domains shown) VH: EVQLLESGGGLVQPGGSLRLSCAASGFTFSSYAMSWFRQPPETGLQWVSSIGGSGGDTYYADSVKGRFTISRDNSKNTLYLQMNSLRAEDTAVYYCAKEGSNGTDDNYYDVDVWGQGTTVTVSS"
  EC50, nM: 0.274
- binder: "Urelumab (antibody, V domains shown) VH: QVQLQQWGAGLLKPSETLSLTCAVYGGSFSGYYWSWIRQSPEKGLEWIGEINHGGYVTYNPSLESRVTISVDTSKNQFSLKLSSVTAADTAVYYCARDYGPGNYDWYFDLWGRGTLVTVSS VL: EIVLTQSPATLSLSPGERATLSCRASQSVSSYLAWYQQKPGQAPRLLIYDASNRATGIPARFSGSGSGTDFTLTISSLEPEDFAVYYCQQRSNWPPALTFGGGTKVEIKR"
  EC50, nM: 0.222

I. PR001758 (antibody, V domains shown) VH: EVQLLESGGGLVQLGGSLRLSCAASGFTFSRYAMTWVRQAPEKGLEWVSSISGSGDDTYYGDSVKGRFTISRDNSQNTVYLQMNSLRAEDTAVYFCAKEKAGTTGDYYYNVDVWGQGTTVTVSS
II. PR001763 (antibody, V domains shown) VH: EVQLLESGGGLVQPGGSLRLSCTASGFTFSNYAMSWVRQAPEKGLEWVSSISGSGGSTFYADSVKGRFTISRDNSKNTLYLQMNRLTAEDTAVYYCAKEGSNGTDDYHYDIDVWGQGTTVTVSS
Compare reported EC50 values for I and II . Which is lower? When you have decided, please share the label of that item. I
